Target: PPARγ (Homo sapiens)
Construct: luciferase reporter plasmid ERE-βGlob-Luc-SV-Neo
Sequence (P37231 238-505 limits assumed): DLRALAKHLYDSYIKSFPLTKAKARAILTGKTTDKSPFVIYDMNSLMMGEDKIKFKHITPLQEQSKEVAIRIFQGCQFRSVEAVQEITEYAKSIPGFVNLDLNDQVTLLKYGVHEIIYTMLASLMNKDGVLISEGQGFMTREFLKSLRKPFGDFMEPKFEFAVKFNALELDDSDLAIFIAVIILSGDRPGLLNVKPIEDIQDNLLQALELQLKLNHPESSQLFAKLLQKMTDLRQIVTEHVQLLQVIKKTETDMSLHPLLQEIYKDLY
Experiment: Cross curve PPAR transactivation test (luciferase reporter, HeLN cells), PPARγ
Conditions: HeLN cells stably transfected with Gal-hPPARγ and ERE-βGlob-Luc-SV-Neo; Schild regression against reference agonist; read-out: PPAR γ Kd app
pKd: −log10 of the molar value.
Entries annotated with measured pKd
RECORDED ENDPOINT: pKd

1) CCCCCCCOc1cc(Sc2nnc(-c3ccc(C(C)(C)C)cc3)n2C)ccc1CNc1ccc(CC(=O)OCC)cc1 ... 7.22
2) CCCCCCCOc1cc(Sc2nnc(-c3ccc(C(C)(C)C)cc3)n2C)ccc1CNc1ccc(CC(=O)O)cc1 ... 7.82

====

Target: PPARα (Homo sapiens)
Sequence (Q07869 200-468 limits assumed): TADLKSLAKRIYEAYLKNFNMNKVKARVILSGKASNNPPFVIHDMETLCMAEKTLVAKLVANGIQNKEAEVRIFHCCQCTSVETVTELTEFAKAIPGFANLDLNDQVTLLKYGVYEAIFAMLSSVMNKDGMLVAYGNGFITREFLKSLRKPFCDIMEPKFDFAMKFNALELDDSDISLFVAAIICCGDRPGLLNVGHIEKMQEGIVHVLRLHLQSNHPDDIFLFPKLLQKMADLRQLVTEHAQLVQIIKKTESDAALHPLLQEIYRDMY
Test: Cross curve PPAR transactivation test (luciferase reporter, HeLN cells), PPARα
Details: HeLN cells stably transfected with Gal-hPPARα and ERE-βGlob-Luc-SV-Neo; Schild regression against reference agonist; n.a. means not active; read-out: PPAR α Kd app
RECORDED ENDPOINT: Kd (µM)

1) CCCCCCCOc1cc(Sc2nnc(-c3ccc(C(C)(C)C)cc3)n2C)ccc1CNc1ccc(CC(=O)O)cc1 [Example 2] ... 8
